Where these numbers come from: patent US20250163104A1

# Target Or Test System: human PD-1 / PD-L1-Ig binding on Jurkat cell line over-expressing human PD-1 (Jurkat-PD-1) (Homo sapiens, UniProt Q15116)
# Construct: expressed in transfected cells; host or cells: Jurkat
# Sequence (Q15116 25-288): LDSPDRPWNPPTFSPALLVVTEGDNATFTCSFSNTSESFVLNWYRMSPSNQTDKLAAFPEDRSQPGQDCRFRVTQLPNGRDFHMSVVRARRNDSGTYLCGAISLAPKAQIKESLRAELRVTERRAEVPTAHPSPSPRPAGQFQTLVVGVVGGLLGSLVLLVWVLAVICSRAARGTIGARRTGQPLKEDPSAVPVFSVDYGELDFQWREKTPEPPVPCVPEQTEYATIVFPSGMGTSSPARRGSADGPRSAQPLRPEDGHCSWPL
# Assay Comment: Jurkat-PD-1 Cell Binding High-Content Screening Assay (CBA)
# Type: cell-based
# Recorded Conditions: Jurkat-PD-1 cells, PE-labeled PD-L1-Ig 20 nM final; read-out: Jurkat HPD1_PDL1 IC50
Where a SMILES comes first, the peptide text is derived from it. Bridges are numbered along the chain shown (N, C = ends). [ ]: non-standard residue; d: D form. Bip = N[C@@H](Cc1ccc(-c2ccccc2)cc1)C(=O)O; 4Pal = N[C@@H](Cc1ccncc1)C(=O)O; Cha = N[C@@H](CC1CCCCC1)C(=O)O; Orn = NCCC[C@H](N)C(=O)O; Dab = NCC[C@H](N)C(=O)O; Dap = NC[C@H](N)C(=O)O
Measure Name: IC50 (nM)
Please reply with the bare figure in nM and do not write the unit itself.

Use the examples below as a reference point.
Compound	IC50 [nM]
CC[C@H](C)[C@@H]1NC(=O)[C@H](Cc2ccc(-c3ccccc3)cc2)NC(=O)[C@H](C(C)C)NC(=O)[C@H](Cc2cccc(C)c2)NC(=O)[C@H](CC(=O)O)NC(=O)[C@H](Cc2ccc(OCC(=O)O)cc2)NC(=O)[C@H](Cc2ccncc2)NC(=O)CSC[C@@H](C(=O)N[C@@H](C)C(N)=O)NC(=O)[C@H]([C@@H](C)O)NC(=O)[C@H](C(C)C)NC(=O)[C@H](CC2CCCCC2)NC(=O)[C@H](CCN)NC(=O)[C@@H](CC(C)C)NC(=O)[C@H](CCCN)NC1=O [Compound 1198]	15.6
CC(C)C[C@H]1NC(=O)[C@H](CCCN)NC(=O)[C@H](CCCCN)NC(=O)[C@H](Cc2ccc(-c3ccccc3)cc2)NC(=O)[C@H](C(C)C)NC(=O)[C@H](Cc2c[nH]c3ccccc23)NC(=O)[C@H](CC(=O)O)NC(=O)[C@H](Cc2ccncc2)NC(=O)[C@H](CN)NC(=O)CSC[C@@H](C(=O)N[C@@H](CCCN)C(N)=O)NC(=O)[C@H](CN)NC(=O)[C@H](C(C)C)NC(=O)[C@H](CC2CCCCC2)NC(=O)[C@H](CCN)NC1=O [Compound 2251] ({CH2CO}-[Dap][4Pal]DWV[Bip]K[Orn][dL][Dab][Cha]V[Dap]C[Orn]-NH2; thioether N-14)	139

Lookup: Would you mind telling me what IC50 value was observed for CCCC[C@H]1NC(=O)[C@H](CCCN)NC(=O)[C@H](C(C)C)NC(=O)[C@H](Cc2ccc(-c3ccccc3)cc2)NC(=O)[C@H](C(C)C)NC(=O)[C@H](Cc2c[nH]c3ccccc23)NC(=O)[C@H](CC(=O)O)NC(=O)[C@H](Cc2ccc(OCC(=O)O)cc2)NC(=O)[C@H](Cc2ccncc2)NC(=O)CSC[C@@H](C(=O)N[C@@H](C)C(N)=O)NC(=O)[C@H]([C@@H](C)O)NC(=O)[C@H](C(C)C)NC(=O)[C@H](CC2CCCCC2)NC(=O)[C@H](CCN)NC1=O [Compound 1693] ?
Found: 9.1

Lookup: // lookup IC50 for CC(C)C[C@H]1NC(=O)[C@H](CCCN)NC(=O)[C@H](CCC(=O)O)NC(=O)[C@H](Cc2ccc(-c3ccccc3)cc2)NC(=O)[C@H](C(C)C)NC(=O)[C@H](Cc2c[nH]c3ccccc23)NC(=O)[C@H](CC(=O)O)NC(=O)[C@H](Cc2ccc(OCC(=O)O)cc2)NC(=O)[C@H](CN)NC(=O)CSC[C@@H](C(=O)N[C@@H](C)C(N)=O)NC(=O)[C@H]([C@@H](C)O)NC(=O)[C@H](C(C)C)NC(=O)[C@H](CC2CCCCC2)NC(=O)[C@H](Cc2cnc[nH]2)NC1=O [Compound 1518]
Found: 18.7
